Molecular target: T1, full length human MSR1 with a C-terminal Myc tag, on HEK293.Myc.hMSR1 cells (human, UniProt P21757 1-451)
T1 sequence (looked up): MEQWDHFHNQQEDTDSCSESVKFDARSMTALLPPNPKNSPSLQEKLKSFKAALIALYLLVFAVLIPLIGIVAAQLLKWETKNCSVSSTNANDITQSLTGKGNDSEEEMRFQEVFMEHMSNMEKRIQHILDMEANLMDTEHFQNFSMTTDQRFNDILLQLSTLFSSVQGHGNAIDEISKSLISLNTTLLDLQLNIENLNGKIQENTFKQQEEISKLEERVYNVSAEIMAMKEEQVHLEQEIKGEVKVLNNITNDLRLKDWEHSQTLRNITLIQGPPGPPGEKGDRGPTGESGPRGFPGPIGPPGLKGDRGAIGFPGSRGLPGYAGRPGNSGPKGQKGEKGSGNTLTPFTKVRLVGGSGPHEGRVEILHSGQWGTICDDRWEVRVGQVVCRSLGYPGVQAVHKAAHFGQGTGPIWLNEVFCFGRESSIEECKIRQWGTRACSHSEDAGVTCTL
Assay: cell-based or functional assay
observationType: IC50 of Dil-Oxidized LDL uptake inhibition (nM)

# binder, unitsOfMeasure, inequalityOperator, valueObserved
measured = [
    ("H2aM21229N (antibody, mouse IgG2a, V domains shown, mouse IgG2a Fc) VH: EVQLVESGGGLVKPGGSLRLSCAASGFTFSRYSMNWVRQAPGKGLEWVSSISSSSSYIYYGDTVKGRFTISRDNAKKSLYLQMNSLRAEDTAVYYCVRDRGQLVLYFDYWGQGTLVTVSS VL: DIQMTQSPASLSTSIRDRVTITCRASLSISSFLNWFQQRPGKAPKLLIYVASNLQSGVPSRFSDSGSGTDFTLTISSLQPEDFATYYCQQNYSTPPITFGQGTRLEIK", "nM", ">", 100),
    ("H2aM21227N (antibody, mouse IgG2a, V domains shown) VH: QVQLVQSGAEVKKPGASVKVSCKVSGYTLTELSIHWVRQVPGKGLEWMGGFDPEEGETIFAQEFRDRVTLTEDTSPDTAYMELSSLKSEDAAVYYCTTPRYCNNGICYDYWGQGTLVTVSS VL: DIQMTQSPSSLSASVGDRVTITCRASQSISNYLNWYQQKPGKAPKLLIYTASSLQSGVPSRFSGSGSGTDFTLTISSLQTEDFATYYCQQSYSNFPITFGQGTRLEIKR", "nM", "=", 3.1),
]
